experiment: Hill coefficient was determined
metric: Hill coefficient
Keep it simple and answer with nothing but the number.

Req: Entry under review: COC(=O)[C@H](c1cccc(C)c1)[C@H]1CCCCN1C . Reported Hill coefficient?
Resp: 1

Req: Entry under review: COC(=O)[C@H](c1cccc(Cl)c1)[C@H]1CCCCN1C . Reported Hill coefficient?
Resp: 0.96

Req: Entry under review: COC(=O)[C@H](c1cccc(C)c1)[C@H]1CCCCN1 . Reported Hill coefficient?
Resp: 1.01

Req: Entry under review: COC(=O)[C@H](c1ccc(O)cc1)[C@H]1CCCCN1C . Reported Hill coefficient?
Resp: 1.06

Req: Entry under review: COC(=O)[C@H](c1ccc(O)cc1)[C@H]1CCCCN1 . Reported Hill coefficient?
Resp: 1.07

Req: Entry under review: COC(=O)[C@H](c1ccccc1)[C@H]1CCCCN1 . Reported Hill coefficient?
Resp: 0.9

Req: Entry under review: COC(=O)[C@H](c1ccc(C)cc1)[C@H]1CCCCN1C . Reported Hill coefficient?
Resp: 1.03

Req: Entry under review: COC(=O)[C@H](c1ccccc1)[C@H]1CCCCN1C . Reported Hill coefficient?
Resp: 1

Req: Entry under review: COC(=O)[C@H](c1cccc(Cl)c1)C1CCCCN1 (stereo not given in full) . Reported Hill coefficient?
Resp: 0.95

Req: Entry under review: COC(=O)[C@H](c1ccc(C)cc1)C1CCCCN1 (stereo not given in full) . Reported Hill coefficient?
Resp: 1.05
